Substrate: C=CCO[C@@H]1O[C@H](CO)[C@@H](O[C@@H]2O[C@H](CO)[C@H](O[C@H]3O[C@H](CO)[C@H](O)[C@H](O[C@@H]4O[C@H](CO)[C@H](O)[C@H](O)[C@H]4NC(C)=O)[C@H]3O)[C@H](O)[C@H]2O)[C@H](O)[C@H]1O
Assay: UDP release, Michaelis-Menten fit
Format: biochemical, Homo sapiens
Settings: 10 mM UDP-sugar (UDP-Gal) fixed, 20 mM HEPES pH 7.4, 0.1 mM MnCl2
Result type: kcat/Km (M⁻¹ s⁻¹)
Numbers only, in M⁻¹ s⁻¹.

Look up and report measured kcat/Km for this entry: soluble β3GalT5-1 (HEK293) (Homo sapiens; Q69A) (protein, soluble luminal domain N29-V310, no TM; expressed in HEK293 cells, complex-type N-glycans) NPFKEQSFVYKKDGNFLKLPDTDCRQTPPFLVLLVTSSHKALAERMAIRQTWGKERMVKGKQLKTFFLLGTTSSAAETKEVDQESQRHGDIIQKDFLDVYYNLTLKTMMGIEWVHRFCPQAAFVMKTDSDMFINVDYLTELLLKKNRTTRFFTGFLKLNEFPIRQPFSKWFVSKSEYPWDRYPPFCSGTGYVFSGDVASQVYNVSKSVPYIKLEDVFVGLCLERLNIRLEELHSQPTFFPGGLRFSVCLFRRIVACHFIKPRTLLDYWQALENSRGEDCPPV
10
